- assay: qHTS assay to identify small molecule antagonists of the retinoic acid receptor (RAR) signaling pathway (AID 1159552; note: nearly all actives have a fitted effect of over 50% in size)
- condition label: C3RL4 RARE luciferase reporter, retinol-stimulated, 6 h; series mostly up to 92.4 µM
Results filed as inconclusive are left out. The source made the active and inactive calls. Calls come from the whole dose curve; as a rule, active = well fitted inhibition curve with a large enough effect in the repeat runs; inconclusive = weak or mixed curves, or effect the other way; inactive = no such curve, though single readings can be large or run the other way.
Labels: 1 (active), 0 (inactive)

{"compound": "CCC(C)(NC(=O)c1cc(Cl)c(C)c(Cl)c1)C(=O)CCl (stereo not drawn)", "assigned category": 1}
{"compound": "CCOP(O)OCC", "assigned category": 0}
{"compound": "O=Cc1ccc(Cl)cc1Cl", "assigned category": 0}
{"compound": "IC(I)=C(I)I", "assigned category": 1}
{"compound": "CN(C)c1ccc(N(C)C)cc1", "assigned category": 0}
{"compound": "Cn1cc[n+](C)c1 (tested in a mixture with another compound)", "assigned category": 0}
{"compound": "CC(Cl)Cl", "assigned category": 0}
{"compound": "NNC(=O)c1cccnc1", "assigned category": 0}
{"compound": "CCC(Cl)CCl (stereo not drawn)", "assigned category": 0}
{"compound": "C=CCN1CC[C@]23c4c5ccc(O)c4O[C@H]2C(=O)CC[C@@]3(O)[C@H]1C5", "assigned category": 0}
{"compound": "CN1C[C@H](CNC(=O)OCc2ccccc2)C[C@@H]2c3cccc4c3c(cn4C)C[C@H]21", "assigned category": 0}
{"compound": "O=C(C(Cl)(Cl)Cl)C(Cl)(Cl)Cl", "assigned category": 0}
{"compound": "O=C(O)C(F)(F)C(F)(F)C(F)(F)C(F)(F)C(F)(F)C(F)(F)C(F)(F)C(F)(F)C(F)(F)C(F)(F)F", "assigned category": 0}
{"compound": "O=S1OC[C@@H]2[C@H](CO1)[C@]1(Cl)C(Cl)=C(Cl)[C@@]2(Cl)C1(Cl)Cl (stereo partly drawn)", "assigned category": 0}
{"compound": "CN1C(=O)C(O)N=C(c2ccccc2)c2cc(Cl)ccc21 (stereo not drawn)", "assigned category": 1}
{"compound": "O=C(CBr)OCc1ccccc1", "assigned category": 0}
{"compound": "c1ccc(C2CC2)c(OCC2=NCCN2)c1", "assigned category": 0}
{"compound": "CN(N=O)c1ccc([N+](=O)[O-])cc1", "assigned category": 0}
{"compound": "O=C=Nc1ccc(Cl)cc1", "assigned category": 0}
{"compound": "[O-][Cl+]O", "assigned category": 0}
{"compound": "CC(C)O.CC(C)O.OCCN(CCO)CCO.OCCN(CCO)CCO.[Ti]", "assigned category": 0}
{"compound": "C=CCCl", "assigned category": 0}
{"compound": "N#CCc1ccccc1", "assigned category": 0}
{"compound": "CCOP(=S)(Oc1ccc([N+](=O)[O-])cc1)c1ccccc1 (stereo not drawn)", "assigned category": 0}
{"compound": "CC(Cl)C(C)Cl (stereo not drawn)", "assigned category": 0}
{"compound": "C=CC(=O)OC(C)(C)C", "assigned category": 0}
{"compound": "O=C(CCl)c1ccc(Cl)cc1Cl", "assigned category": 1}
{"compound": "O=S(=O)(O)C(F)(F)C(F)(F)C(F)(F)C(F)(F)F", "assigned category": 1}

// data source = PubChem BioAssay (Tox21)
